Give measured TGI for each item. Keep answers brief.
Tested on: OVCAR-3 ovarian
measurement.notes: NCI tumour cell line growth inhibition, 48 h

input: Look up OVCAR-3 ovarian data: TGI of "c1ccc(N=c2snc3scc(-c4ccccc4)n23)cc1" , then report it.
output: 62.2 µM

input: Look up OVCAR-3 ovarian data: TGI of "CC1=CC=C2c3ccccc3C=CN2C(=O)C1" , then report it.
output: > 100 µM

input: Look up OVCAR-3 ovarian data: TGI of "COc1ccc(/C=N/N=C(\N)NO)c(Cl)c1O" , then report it.
output: > 100 µM

input: Look up OVCAR-3 ovarian data: TGI of CSc1nc(NC2OCC(OC(C)=O)C(OC(C)=O)C2OC(C)=O)c(N=C(C)C(C)=O)c(=O)n1C (stereo not given) , then report it.
output: > 100 µM

input: Look up OVCAR-3 ovarian data: TGI of "c1ccc(N=C(N2CCOCC2)N(CCN2CCOCC2)c2ccccc2)cc1" , then report it.
output: > 100 µM

input: Look up OVCAR-3 ovarian data: TGI of "CCOc1cc2ccc3c4cc(OC)c(OC)cc4cnc3c2cc1OCC" , then report it.
output: > 100 µM

input: Look up OVCAR-3 ovarian data: TGI of "NC(=NCCCC1(c2ccccc2)CCCC1)Nc1ccc(Cl)cc1" , then report it.
output: 3.35 µM

input: Look up OVCAR-3 ovarian data: TGI of CCCCCCCCCCCCNC(=O)[C@H]1CSC(c2cc3ccccc3s2)N1 (stereo not given in full) , then report it.
output: 9.5 µM

input: Look up OVCAR-3 ovarian data: TGI of "Cc1cc2nc3c(C#N)c(-c4ccccc4)/c(=C\Nc4ccc(Cl)cc4)c(=O)n3c2cc1C" , then report it.
output: > 100 µM

input: Look up OVCAR-3 ovarian data: TGI of "COc1cc(OC)c2ssc3c(OC)cc(OC)c4ssc1c2-c43" , then report it.
output: > 100 µM

input: Look up OVCAR-3 ovarian data: TGI of "CC(/C=C/C(=O)c1sc(-n2nc(-c3ccccc3)cc2-c2ccccc2)nc1C)=C\c1ccccc1" , then report it.
output: > 100 µM

input: Look up OVCAR-3 ovarian data: TGI of "COc1ccccc1/C=C/C(=O)c1c(O)cc2occc2c1OC" , then report it.
output: > 100 µM

input: Look up OVCAR-3 ovarian data: TGI of "CCC(=O)C1(N2CCOCC2)CCN(CCCC(=O)c2ccc(F)cc2)CC1" , then report it.
output: > 100 µM

input: Look up OVCAR-3 ovarian data: TGI of C=C[C@]1(O)CCC[C@]2(C)C(=O)CCC12C (stereo not given in full) , then report it.
output: > 100 µM

input: Look up OVCAR-3 ovarian data: TGI of "O=C(CSc1nnc(Cc2ccccc2)o1)Nc1cccc(Cl)c1" , then report it.
output: > 100 µM

input: Look up OVCAR-3 ovarian data: TGI of "CC(C)CCSC1=CC(=O)c2ccccc2C1=O" , then report it.
output: 2.39 µM

input: Look up OVCAR-3 ovarian data: TGI of "CC(C)N(C(=O)C1(C)CC1)C(C)C" , then report it.
output: > 100 µM

input: Look up OVCAR-3 ovarian data: TGI of "O=C(N/N=C/c1ccccc1O)C(O)(c1ccccc1)c1ccccc1" , then report it.
output: > 100 µM

input: Look up OVCAR-3 ovarian data: TGI of "CC1=C(C)CC(C#N)(C#N)C(C#N)(C#N)C1" , then report it.
output: 9.68 µM

input: Look up OVCAR-3 ovarian data: TGI of "C=CCc1c(C)nc(C)nc1N/N=C/C=C/c1ccccc1" , then report it.
output: 53.3 µM

input: Look up OVCAR-3 ovarian data: TGI of "CCSC(SCC)c1cc2c(cc1Br)OCO2" , then report it.
output: 57.3 µM

input: Look up OVCAR-3 ovarian data: TGI of "CC1=C(C(=O)Nc2ccccc2)C(c2ccc([N+](=O)[O-])cc2)C(C(=O)Nc2ccccc2)=C(C)N1" , then report it.
output: > 100 µM

input: Look up OVCAR-3 ovarian data: TGI of "Nc1nc(Cl)cc(NCCCNc2cc(Cl)nc(N)n2)n1" , then report it.
output: > 100 µM

input: Look up OVCAR-3 ovarian data: TGI of Nc1ccccc1SC(CC(=O)c1ccccc1)c1ccc([N+](=O)[O-])cc1 (stereo not given) , then report it.
output: 23.7 µM

input: Look up OVCAR-3 ovarian data: TGI of CC(=O)NC(CCCCN(Cc1ccccc1)C(=O)NCCCl)C(=O)NCc1ccccc1 (stereo not given) , then report it.
output: > 100 µM

input: Look up OVCAR-3 ovarian data: TGI of "Cc1cccc(-c2nn3c(c2-c2ccnc4ccc(C(N)=O)cc24)CCC3)n1" , then report it.
output: > 100 µM

input: Look up OVCAR-3 ovarian data: TGI of "N=C(N)/N=C(\N)c1c(-c2cc(O)ccc2O)nc2sccn12" , then report it.
output: 54.8 µM

input: Look up OVCAR-3 ovarian data: TGI of N#CC1(C#N)NC(c2cccnc2)C(C#N)(C#N)NC1c1cccnc1 (stereo not given) , then report it.
output: > 100 µM

input: Look up OVCAR-3 ovarian data: TGI of "COc1ccc(/C=C/C(=O)C(C)(C)CN2CCCCC2)cc1" , then report it.
output: 34.5 µM

input: Look up OVCAR-3 ovarian data: TGI of "CCc1n[nH]c(=O)n1N1C(=O)CCC1=O" , then report it.
output: > 100 µM

input: Look up OVCAR-3 ovarian data: TGI of "Cc1ccc2c3c(cnc2n1)C(=O)OCCN3C" , then report it.
output: > 100 µM

input: Look up OVCAR-3 ovarian data: TGI of "Cc1nnc2sc(Cl)nn12" , then report it.
output: 33.6 µM

input: Look up OVCAR-3 ovarian data: TGI of C=C1C(=O)OC2/C=C(\C)C3OC3/C=C(/C(=O)OC)C(O)C(OC(=O)C3(C)OC3C)C12 (stereo not given) , then report it.
output: 10 µM

input: Look up OVCAR-3 ovarian data: TGI of COCc1c(CO)cnc(C)c1OC1OC(CO)C(O)C(O)C1O (stereo not given) , then report it.
output: > 100 µM

input: Look up OVCAR-3 ovarian data: TGI of "CC1=[N+]([O-])C(C)(C)N(N=O)C1(C)C" , then report it.
output: > 10 µM
